- Assayed Target: T1, human CRLF2 expressed on the cell surface (BaF3-CRLF2, REH-CRLF2, MHH CALL 4, MUTZ5 cells) (human), Q9HC73
- T1 chain: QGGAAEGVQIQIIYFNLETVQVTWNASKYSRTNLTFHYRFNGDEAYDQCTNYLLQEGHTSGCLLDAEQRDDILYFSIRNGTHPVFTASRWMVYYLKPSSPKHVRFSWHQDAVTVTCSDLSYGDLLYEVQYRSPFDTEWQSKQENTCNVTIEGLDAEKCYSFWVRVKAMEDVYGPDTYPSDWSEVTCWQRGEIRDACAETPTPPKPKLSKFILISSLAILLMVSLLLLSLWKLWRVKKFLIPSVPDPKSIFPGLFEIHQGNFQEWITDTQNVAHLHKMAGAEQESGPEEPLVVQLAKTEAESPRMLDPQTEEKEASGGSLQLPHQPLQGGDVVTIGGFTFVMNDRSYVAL
- Assay Overview: flow cytometry, M13 phage on BaF3-CRLF2 cells (FIG. 3)
Quantity Measured: pKd
Lab note — pKd values are minus log10 of concentrations in M.

Recorded result, TDAHASV (modifications not checked) [M13 filamentous phage displaying the CRLF2-binding peptide TDAHASV] , pKd: 8.52
